- target-entity: native human M-CSF (in human serum or in MDA-MB-231 conditioned medium) (human), P09603
- Sequence (P09603 33-255): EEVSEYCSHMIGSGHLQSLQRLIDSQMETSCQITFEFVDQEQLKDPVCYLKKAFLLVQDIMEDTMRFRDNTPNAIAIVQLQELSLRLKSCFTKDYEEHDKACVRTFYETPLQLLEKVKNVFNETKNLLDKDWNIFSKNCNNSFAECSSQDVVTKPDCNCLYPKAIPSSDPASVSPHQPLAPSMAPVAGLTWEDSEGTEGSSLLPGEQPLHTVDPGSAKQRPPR
- protocol-text: cell-based or functional assay
quantity-name: IC50, inhibition of M-NFS-60 proliferation induced by human serum (50%)

Supply reported IC50, inhibition of M-NFS-60 proliferation induced by human serum (50%) belonging to this binder: Caline, IgG1_D265A (antibody, V domains shown) VH: QVQLQQSGPGLVKPSQTLSLTCAISGDSVSSNSAAWNWIRQSPSRGLEWLGRTYYRSKWKHEYAMSVKSRITINPDTSKNQFSLQLNSVTPEDTAVYYCARDRYYYSAFDYWGQGTLVTVSS VL: QSALTQPASVSGSPGQSITISCTGTSSDVGGYNSVSWYQQHPGKAPKLMIYAVSNRPSGVSNRFSGSKSGNTASLTISGLQAEDEADYYCASYDERFTRVFGGGTKLTVLGQ 0.0177 nM

Supply reported IC50, inhibition of M-NFS-60 proliferation induced by human serum (50%) belonging to this binder: Romaine, IgG1_D265A (antibody, V domains shown) VH: EVQLVESGGGLVKPGGSLRLSCAASGFTFSIYAMSWVRQAPGKGLEWVGRIKSNADGGTTEYAAPVKGRFTISRDDSKNTLYLQMNSLKTEDTAVYYCARMRYYSDLYFDPWGQGTLVTVSS VL: DIELTQPPSVSVSPGQTASITCSGDAIGSKYVHWYQQKPGQAPVLVISKDNKRPSGIPERFSGSNSGNTATLTISGTQAEDEADYYCQTATVSSYWWVFGGGTKLTVLGQ 0.0252 nM

Each recorded value in this set is attributed to patent US20180057581A1.
